Values were extracted from patent US20230126400A1.

Recorded fold increase in MFI values for a group of binders are listed next.
SYSTEM NAME: human MS4A4A (human, UniProt Q96JQ5 1-239)
EXPERIMENTAL PROTOCOL: FACS, K562 cells, supernatant
MEASURED PARAMETER: fold increase in MFI

INSERT INTO measurements (binder, measured_value) VALUES
  ('anti-MS4A4A antibody 4A-207 (murine) (antibody, V domains shown, murine hybridoma antibody) VH: EVNLEESGGGLVQPGGSMKLSCVASGFTFNNYWMNWVRQSPEKGLEWVAEIRLKSNNYATHYAESVKGRFTISRDDSKSSVYLQMNNLRPEDTAIYYCTTDPPMDYSGQGTPVTVSS VL: QIVLTQSPAFMSASPGEKVTITCSASSSVSYMHWFQQKPGTSPKLWIYSTSNLVSGVPDRFSGSGSGTSYSLTISRMEAEYAATYYCHQRTSYPWTFGGGTKLEIK', '> 2 fold'),
  ('anti-MS4A4A antibody 4A-220 (antibody, V domains shown, murine hybridoma antibody) VH: EVQLQQSGPDLVKPGASVKISCKASGYSFNGYFMNWVMQSHGESLEWIGRINPYNGDTLYNQKFKGKATLTVDKSSSTGHMELRSLASEDSAVYYCARVKGYDYDGAMDYWGQGTSVTVSS VL: DIVMTQSPDSLAVSLGERATINCRSSQSLLQSGNQKSSLAWYQQKPGQPPKLLIFWARTRQSGVPDRFSGSGSGTDFTLTISSVQAEDVAVYYCQQYSDTPFTFGQGTKLEIK', '> 2 fold');
